target: NS5B 1b (Hepatitis C virus genotype 1b, UniProt P26663); construct: a region encoding NS5B (J Virol 1991 March, 65(3), 1105-13, 544 amino acids after deletion of 47 amino acids on the C-terminal); 6 His (C); experiment: Assay of enzyme (HCV polymerase) inhibitory activity, NS5B 1b
Sequence (P26663 2420-2963): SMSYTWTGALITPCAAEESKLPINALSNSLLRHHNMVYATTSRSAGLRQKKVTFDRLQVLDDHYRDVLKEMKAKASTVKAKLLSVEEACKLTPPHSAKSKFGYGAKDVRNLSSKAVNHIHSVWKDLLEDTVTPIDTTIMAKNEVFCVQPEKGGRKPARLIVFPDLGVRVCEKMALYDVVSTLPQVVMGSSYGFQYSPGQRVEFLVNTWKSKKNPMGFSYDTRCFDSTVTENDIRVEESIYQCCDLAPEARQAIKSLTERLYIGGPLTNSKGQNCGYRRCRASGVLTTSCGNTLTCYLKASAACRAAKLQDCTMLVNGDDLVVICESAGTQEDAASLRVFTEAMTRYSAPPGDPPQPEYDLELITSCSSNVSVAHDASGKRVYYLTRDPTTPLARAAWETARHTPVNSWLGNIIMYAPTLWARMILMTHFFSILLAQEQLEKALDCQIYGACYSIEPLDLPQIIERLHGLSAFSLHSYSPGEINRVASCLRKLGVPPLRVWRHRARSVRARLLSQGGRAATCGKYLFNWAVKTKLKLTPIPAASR
Counter-ions that a name gives are not always drawn.
Below is a list of entries, each paired with its recorded IC50 value.

Examples from the recorded data:
CCN1CCN(C(=O)CN2CCn3c(c(C4CCCCC4)c4sc(C(=O)O)cc43)-c3ccccc32)CC1 [Example 14, dihydrochloride] ... 10 to 100 nM
Cc1ccc2c(c1)N(CCN1CCCCC1)CCn1c-2c(C2CCCCC2)c2sc(C(=O)O)cc21 [Example 19, dihydrochloride] ... < 10 nM
CCOc1ccc2c(c1)N(C)CCn1c-2c(C2CCCCC2)c2sc(C(=O)NC3(C(=O)Nc4ccc(/C=C/C(=O)O)cc4)CCC3)cc21 ... 10 to 100 nM
Cc1ccc2c(c1)N(CCN1CCCOCC1)CCn1c-2c(C2CCCCC2)c2sc(C(=O)O)cc21 [Example 28, dihydrochloride] ... 10 to 100 nM
CCOc1ccc2c(c1)OCCn1c-2c(C2CCCCC2)c2sc(C(=O)O)cc21 ... 10 to 100 nM

Measured IC50 of CS(=O)(=O)c1ccc(N2CCOCC2)c(COc2ccc3c(c2)OCCn2c-3c(C3CCCCC3)c3sc(C(N)=O)cc32)c1 : < 10 nM

Measured IC50 of CC1CCCN(CCN2CCn3c(c(C4CCCCC4)c4sc(C(=O)O)cc43)-c3ccccc32)C1 (centres unmarked) [Example 22, dihydrochloride] : 10 to 100 nM

Measured IC50 of COC(=O)N1CCCC(Oc2ccc3c(c2)OCCn2c-3c(C3CCCCC3)c3sc(C(=O)O)cc32)C1 (centres unmarked) : 10 to 100 nM

Measured IC50 of COc1ccc2c(c1)OCCn1c-2c(C2CCCCC2)c2sc(C(=O)NC3(C(=O)Nc4cccc(/C=C/C(=O)O)c4)CCC3)cc21 : 10 to 100 nM

Measured IC50 of Cc1ccc2c(c1)N(CCN1CCCCCCC1)CCn1c-2c(C2CCCCC2)c2sc(C(=O)O)cc21 [Example 25, dihydrochloride] : < 10 nM

Measured IC50 of O=C(O)c1cc2c(s1)c(C1CCCCC1)c1n2CCOc2ccccc2-1 : 10 to 100 nM

Measured IC50 of CCOc1ccc2c(c1)N(C)CCn1c-2c(C2CCCCC2)c2sc(C(=O)O)cc21 : 10 to 100 nM

Measured IC50 of Cc1ccc2c(c1)N(C)CCn1c-2c(C2CCCCC2)c2sc(C(=O)NC3(C(=O)Nc4ccc(/C=C/C(=O)O)cc4)CCC3)cc21 : 10 to 100 nM

Measured IC50 of O=C(O)c1cc2c(s1)c(C1CCCCC1)c1n2CCN(CCN2CCCCCCC2)c2cc(Cl)ccc2-1 [Example 29, dihydrochloride] : 10 to 100 nM
